# T/C values compiled below
- Tested on: P388 leukemia ip, CD2F1 mice, survival T/C
- PROTOCOL_SUMMARY: NCI In Vivo Anticancer Drug Screen. Data for tumor model P388 Leukemia (intraperitoneal) in CD2F1 (CDF1) mice
- ASSAY_CONTEXT: endpoint: median survival time; dose: 100.0 mg/kg/injection; schedule: Q01DX005 (ip); vehicle: Klucel (hydroxypropylcellulose) (HPC); higher = longer survival
Inconclusive results and toxic doses are left out.
READOUT_LABEL: T/C

[[record]]
molecule = "O=C(O)c1cccc(-c2nn[nH]n2)c1"
observed_value = "90 % of control"

[[record]]
molecule = "OC1=CC(=S)NC2CCCCC12 (centres undefined)"
observed_value = "102 % of control"

[[record]]
molecule = "CCCCC(NC(=O)OCc1ccccc1)C(=O)NC(CC(C)C)C(=O)O (centres undefined)"
observed_value = "100 % of control"

[[record]]
molecule = "CCc1nc(N)nc(N)c1-c1ccc2c(c1)nnn2C"
observed_value = "104 % of control"

[[record]]
molecule = "Clc1ccc(N2C(c3ccccc3)=N[C@@H](N3CCCCC3)[C@@H]2N2CCCCC2)cc1"
observed_value = "98 % of control"

[[record]]
molecule = "COc1ccc(-c2cc(-c3ccc(OC)cc3)nc(-c3ccc(OC)cc3)c2)cc1"
observed_value = "94 % of control"

[[record]]
molecule = "O=C(O)COc1ccccc1P(=O)(c1ccccc1)c1ccccc1"
observed_value = "102 % of control"

[[record]]
molecule = "O=C(O)c1cccc2c1C(=O)c1cccc3snc-2c13"
observed_value = "99 % of control"

[[record]]
molecule = "Oc1ccc(Nc2ccc3[nH]c4ccccc4c3c2)cc1"
observed_value = "104 % of control"

[[record]]
molecule = "CN1C=C/C(=C/[N+](=O)[O-])N(C)C1=O"
observed_value = "100 % of control"

[[record]]
molecule = "O=c1[nH][nH]c(O)c1-c1ccc(-c2c(O)[nH][nH]c2=O)cc1"
observed_value = "105 % of control"

[[record]]
molecule = "FC(F)(F)C1(C(F)(F)F)O[P+]2(OC(C(F)(F)F)(C(F)(F)F)c3ccccc32)c2ccccc21"
observed_value = "105 % of control"

[[record]]
molecule = "O=C1/C(=C\\O)C2CCC3CCC4CC1C342 (centres undefined)"
observed_value = "107 % of control"

[[record]]
molecule = "COc1cc(N)c2c(c1N)C(=O)c1ccccc1C2=O"
observed_value = "101 % of control"

[[record]]
molecule = "CC[C@@]1(CCC(=O)OC)CCC(=O)N2CC[C@@]3(C(=O)Nc4ccccc43)[C@@H]21"
observed_value = "95 % of control"

[[record]]
molecule = "Cc1ccc(C=C2c3ccccc3C(=O)c3ccccc32)cc1"
observed_value = "107 % of control"

[[record]]
molecule = "CCOC(=O)c1cnc(=O)[nH]c1C(=O)OCC"
observed_value = "100 % of control"

[[record]]
molecule = "COc1cc(/C=C/c2ccc(O)c(OC)c2)cc(OC)c1"
observed_value = "95 % of control"

[[record]]
molecule = "CC(=O)NCCSSCCCCSSCCNC(C)=O"
observed_value = "112 % of control"

[[record]]
molecule = "O=C1N(C2CCCCC2)C(/C=C/c2ccccc2)C1(c1ccccc1)c1ccccc1 (centres undefined)"
observed_value = "88 % of control"

[[record]]
molecule = "Cc1ccc(C2=NN(c3ccccc3)C(c3ccccc3)C2NC2CCCCC2)cc1 (centres undefined)"
observed_value = "89 % of control"

[[record]]
molecule = "CCC1(CC)CC1C(=O)O (centres undefined)"
observed_value = "89 % of control"

[[record]]
molecule = "BrCCCOc1ccccc1Br"
observed_value = "97 % of control"

[[record]]
molecule = "O=C1/C(=C/c2cccc([N+](=O)[O-])c2)SC(=S)N1C1CC1"
observed_value = "89 % of control"


====

- Test system: P388 leukemia ip, CD2F1 mice, survival T/C
- PROTOCOL_SUMMARY: NCI In Vivo Anticancer Drug Screen. Data for tumor model P388 Leukemia (intraperitoneal) in CD2F1 (CDF1) mice
- ASSAY_CONTEXT: endpoint: median survival time; dose: 240.0 mg/kg/injection; schedule: Q01DX005 (ip); vehicle: saline with Tween-80; higher = longer survival
Inconclusive results and toxic doses are left out.
READOUT_LABEL: T/C

[[record]]
compound = "COC(=O)N1C=CC2ON=C(OC)C2C1 (centres undefined)"
observed_value = "94 % of control"

[[record]]
compound = "CC(C)COC(=O)C(CC(C)C)NC(=O)C(C)O (centres undefined)"
observed_value = "100 % of control"

[[record]]
compound = "COc1ccc(C(CCOS(=O)(=O)c2ccc(Br)cc2)(c2ccc(OC)cc2)c2ccc(OC)cc2)cc1"
observed_value = "87 % of control"

[[record]]
compound = "O=C(CC1=NC2NN(c3ccccc3)C(=O)C2=C1CC(=O)c1ccc([N+](=O)[O-])cc1)c1ccc([N+](=O)[O-])cc1 (centres undefined)"
observed_value = "104 % of control"

[[record]]
compound = "O=C(c1ccccc1)N1CCCSC1=S"
observed_value = "104 % of control"

[[record]]
compound = "COCCOCOCCCC#C[Si](C)(C)C"
observed_value = "106 % of control"

[[record]]
compound = "O=C(Oc1ccc2c(=O)cc(-c3ccccc3)oc2c1OC(=O)c1ccccc1)c1ccccc1"
observed_value = "90 % of control"

[[record]]
compound = "O=S(=O)(c1ccc(F)cc1)N(CCCCCN(S(=O)(=O)c1ccc(F)cc1)S(=O)(=O)c1ccc(F)cc1)S(=O)(=O)c1ccc(F)cc1"
observed_value = "90 % of control"

[[record]]
compound = "O=C(c1ccc(Cl)cc1)N1CCN(C(=O)N2CCN(C(=O)N3CCN(C(=O)c4ccc(Cl)cc4)CC3)CC2)CC1"
observed_value = "89 % of control"


====

Documented T/C across a set of compounds
- Test system: P388 leukemia ip, CD2F1 mice, survival T/C
- PROTOCOL_SUMMARY: NCI In Vivo Anticancer Drug Screen. Data for tumor model P388 Leukemia (intraperitoneal) in CD2F1 (CDF1) mice
- ASSAY_CONTEXT: endpoint: median survival time; dose: 120.0 mg/kg/injection; schedule: Q01DX005 (ip); vehicle: saline; higher = longer survival
Toxic doses and inconclusive results are not listed.
READOUT_LABEL: T/C

[[record]]
compound = "CCCCCc1nc(N)nc(-c2nc(N)nc(CCCCC)c2C)c1C"
observed_value = "100 % of control"

[[record]]
compound = "CN1C(=O)N(C)P123OP1(N(C)C(=O)N1C)(N(C)C(=O)N2C)N(C)C(=O)N3C"
observed_value = "97 % of control"

[[record]]
compound = "OCCC(CCN1CCOCC1)(c1ccccc1)C1(O)CCCC1 (stereo not drawn)"
observed_value = "98 % of control"

[[record]]
compound = "O=P1(NCCCNP2(=O)OC(CCl)=NC2c2ccccc2Cl)OC(CCl)=NC1c1ccccc1Cl (stereo not drawn)"
observed_value = "98 % of control"

[[record]]
compound = "O=C1CCC(O)N1CN1C(=O)CCC1O (stereo not drawn)"
observed_value = "108 % of control"

[[record]]
compound = "COP(=O)(CC(=O)CCCCCO[Si](C)(C)C(C)(C)C)OC"
observed_value = "99 % of control"

[[record]]
compound = "CC1(CCl)COP(=O)(NN)OC1 (stereo not drawn)"
observed_value = "102 % of control"

[[record]]
compound = "Cc1cccnc1Nc1ncccc1C"
observed_value = "102 % of control"

[[record]]
compound = "CSCC(NP1(=O)SC(NN=C(C)C)=NC1(C)C)C(=O)O (stereo not drawn)"
observed_value = "107 % of control"

[[record]]
compound = "CCCCCC12OCC(C)(C)N1O2 (stereo not drawn)"
observed_value = "109 % of control"

[[record]]
compound = "CN(C)CCO[Si](C)(C)[CH2][Sn]([CH3])([CH3])[CH3]"
observed_value = "105 % of control"

[[record]]
compound = "CC(=O)/C(=C\\c1ccccc1Cl)C(=O)CCN(C)C"
observed_value = "121 % of control"

[[record]]
compound = "CCOP(=O)(CC=O)OCC"
observed_value = "100 % of control"

[[record]]
compound = "CCCN1C(=O)C2C3CCC(O3)C2C1=O (stereo not drawn)"
observed_value = "109 % of control"

[[record]]
compound = "CCOC(=O)C(C)(CCC(C)=O)C(=O)OCC"
observed_value = "99 % of control"

[[record]]
compound = "CC(=O)Nc1c(I)c(C(=O)NC2C(O)OC(CO)C(O)C2O)c(I)c(N(C)C(C)=O)c1I (stereo not drawn)"
observed_value = "100 % of control"

[[record]]
compound = "NNC(=O)C(O)C(O)C(=O)NN (stereo not drawn)"
observed_value = "94 % of control"

[[record]]
compound = "O=C(O)CN(CCN1CC(=O)OC(=O)C1)CCN1CC(=O)OC(=O)C1"
observed_value = "97 % of control"

